Source of measurements: the supplement of paper PMC11208160

Assay: recombinant UMI read abundance after kanamycin selection (control-corrected) (log10(CPM+1)); higher = more efficient recombination; extreme values may be limits of the assay; sequences stand for … in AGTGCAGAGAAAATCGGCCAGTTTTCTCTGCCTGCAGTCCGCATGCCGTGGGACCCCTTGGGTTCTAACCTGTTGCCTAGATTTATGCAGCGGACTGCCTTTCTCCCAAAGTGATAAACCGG…AGGTTGGTTTCACT; site = the 11-nt donor;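 also: IS621 bridge recombinase in Escherichia coli cells against a fixed T5 target plasmid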
This listing pairs sequences with measured recombinant UMI read abundance (log10).
Output spec: single numeric token, no unit.

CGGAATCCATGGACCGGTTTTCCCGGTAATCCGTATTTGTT (site CGGAGTACTAA); 0.00934
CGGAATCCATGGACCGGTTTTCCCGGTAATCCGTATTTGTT (site CGGCCTCCTAA); 0
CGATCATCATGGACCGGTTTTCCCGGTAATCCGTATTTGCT (site CGATCATCTAG); 1.82

Prompt line: Reported recombinant UMI read abundance (log10), sequence GTTGTGCCATGGACCGGTTTTCCCGGTAATCCGTATTTGGT (site GTTGTACCTAC) : ____
Response line: 0.00401

Prompt line: Param item = AGAAGCCCATGGACCGGTTTTCCCGGTAATCCGTATTTGTC (site AGAAGCCCTGA) ; retrieve measured recombinant UMI read abundance (log10).
Response line: 1.43

Prompt line: Reported recombinant UMI read abundance (log10), sequence AGCCTAGCATGGACCGGTTTTCCCGGTAATCCGTATTTGTG (site AGCCTAGCTGA) : ____
Response line: 0

Prompt line: Which measured recombinant UMI read abundance (log10) value corresponds to CAGGAATCATGGACCGGTTTTCCCGGTAATCCGTATTTGCA (site CAGGAATCTTG) ?
Response line: 3.17

Prompt line: Tell me the measured recombinant UMI read abundance (log10) of CTCTAAACATGGACCGGTTTTCCCGGTAATCCGTATTTGCT (site CTCTATACTAG) , please.
Response line: 0

Prompt line: Please give the measured recombinant UMI read abundance (log10) for this sequence: TCCAATTCATGGACCGGTTTTCCCGGTAATCCGTATTTGCG (site TCCAATTCTCG)
Response line: 0

Prompt line: Dear colleague, I am looking for the recorded recombinant UMI read abundance (log10) of the following sequence: GGGTTCCCATGGACCGGTTTTCCCGGTAATCCGTATTTGTG (site GGGTTCCCTCA)
Response line: 0.00899
